All figures here come from patent US12421228B2.

Target: purified human, His-tagged PRC2 complex (Homo sapiens (Human))
Sequence (Q15910 whole entry): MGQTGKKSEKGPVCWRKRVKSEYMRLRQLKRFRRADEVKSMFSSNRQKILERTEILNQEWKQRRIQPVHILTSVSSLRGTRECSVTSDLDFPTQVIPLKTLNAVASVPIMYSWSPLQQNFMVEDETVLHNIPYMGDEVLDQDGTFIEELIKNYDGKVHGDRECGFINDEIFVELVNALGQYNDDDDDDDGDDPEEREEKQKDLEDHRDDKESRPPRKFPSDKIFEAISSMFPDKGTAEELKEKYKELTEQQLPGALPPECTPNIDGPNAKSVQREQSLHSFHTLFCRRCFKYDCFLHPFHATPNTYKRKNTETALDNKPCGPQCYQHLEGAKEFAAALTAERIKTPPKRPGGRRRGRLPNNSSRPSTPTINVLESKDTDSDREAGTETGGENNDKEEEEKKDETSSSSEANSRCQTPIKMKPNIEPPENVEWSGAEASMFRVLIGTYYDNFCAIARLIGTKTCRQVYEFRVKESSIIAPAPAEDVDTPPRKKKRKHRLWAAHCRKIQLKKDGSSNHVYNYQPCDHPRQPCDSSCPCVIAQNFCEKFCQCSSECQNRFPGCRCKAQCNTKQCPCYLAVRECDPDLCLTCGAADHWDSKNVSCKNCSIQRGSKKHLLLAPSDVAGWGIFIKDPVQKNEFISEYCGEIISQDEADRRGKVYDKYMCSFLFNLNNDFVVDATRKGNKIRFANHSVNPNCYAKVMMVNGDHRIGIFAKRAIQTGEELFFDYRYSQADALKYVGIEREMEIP
Sequence (O75530 whole entry): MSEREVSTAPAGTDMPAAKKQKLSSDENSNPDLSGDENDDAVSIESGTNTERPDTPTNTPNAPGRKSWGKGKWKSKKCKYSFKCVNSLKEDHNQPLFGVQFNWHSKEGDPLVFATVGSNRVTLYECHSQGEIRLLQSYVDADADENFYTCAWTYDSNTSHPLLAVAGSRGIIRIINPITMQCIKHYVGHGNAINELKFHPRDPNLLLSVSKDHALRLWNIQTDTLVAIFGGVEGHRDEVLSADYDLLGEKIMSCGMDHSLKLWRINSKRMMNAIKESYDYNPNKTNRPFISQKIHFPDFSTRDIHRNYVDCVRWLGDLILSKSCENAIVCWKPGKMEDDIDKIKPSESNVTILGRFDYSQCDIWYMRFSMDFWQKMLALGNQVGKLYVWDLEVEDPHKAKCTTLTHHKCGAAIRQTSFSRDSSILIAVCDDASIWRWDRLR
Sequence (Q15022 whole entry partner): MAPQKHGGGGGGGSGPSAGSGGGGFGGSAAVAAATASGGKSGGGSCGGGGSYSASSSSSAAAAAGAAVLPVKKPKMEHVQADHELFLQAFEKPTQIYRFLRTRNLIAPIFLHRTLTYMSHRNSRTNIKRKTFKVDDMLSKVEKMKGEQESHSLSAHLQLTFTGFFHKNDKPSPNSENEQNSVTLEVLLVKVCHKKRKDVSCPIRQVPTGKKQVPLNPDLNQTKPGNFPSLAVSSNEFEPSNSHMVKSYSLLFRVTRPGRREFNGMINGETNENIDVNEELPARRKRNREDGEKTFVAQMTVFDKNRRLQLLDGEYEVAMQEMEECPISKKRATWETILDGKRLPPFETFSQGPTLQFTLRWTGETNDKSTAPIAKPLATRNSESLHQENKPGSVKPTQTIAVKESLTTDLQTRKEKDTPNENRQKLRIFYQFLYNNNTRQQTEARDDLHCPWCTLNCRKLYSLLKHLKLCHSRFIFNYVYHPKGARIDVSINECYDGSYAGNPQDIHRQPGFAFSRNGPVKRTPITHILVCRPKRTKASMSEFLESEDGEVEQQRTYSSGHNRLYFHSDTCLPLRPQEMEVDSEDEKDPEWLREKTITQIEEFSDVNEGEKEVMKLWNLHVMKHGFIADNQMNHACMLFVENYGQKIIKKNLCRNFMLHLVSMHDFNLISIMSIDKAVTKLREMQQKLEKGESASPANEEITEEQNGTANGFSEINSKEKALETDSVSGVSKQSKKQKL
Sequence (Q6ZN18 whole entry partner): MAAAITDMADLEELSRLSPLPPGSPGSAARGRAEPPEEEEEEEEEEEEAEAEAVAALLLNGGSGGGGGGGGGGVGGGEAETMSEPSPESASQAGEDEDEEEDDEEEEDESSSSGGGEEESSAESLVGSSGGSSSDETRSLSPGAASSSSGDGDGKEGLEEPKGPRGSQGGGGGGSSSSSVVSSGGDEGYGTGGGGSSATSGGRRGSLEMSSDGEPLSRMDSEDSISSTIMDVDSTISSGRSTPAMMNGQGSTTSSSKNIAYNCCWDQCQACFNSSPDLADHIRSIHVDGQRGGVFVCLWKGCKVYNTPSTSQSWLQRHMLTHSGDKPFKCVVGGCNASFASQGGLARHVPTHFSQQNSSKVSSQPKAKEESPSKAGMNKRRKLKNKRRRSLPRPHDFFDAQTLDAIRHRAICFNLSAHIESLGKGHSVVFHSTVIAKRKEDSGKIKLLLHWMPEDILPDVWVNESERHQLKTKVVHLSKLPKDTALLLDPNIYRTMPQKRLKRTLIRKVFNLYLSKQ
Sequence (Q09028 whole entry partner): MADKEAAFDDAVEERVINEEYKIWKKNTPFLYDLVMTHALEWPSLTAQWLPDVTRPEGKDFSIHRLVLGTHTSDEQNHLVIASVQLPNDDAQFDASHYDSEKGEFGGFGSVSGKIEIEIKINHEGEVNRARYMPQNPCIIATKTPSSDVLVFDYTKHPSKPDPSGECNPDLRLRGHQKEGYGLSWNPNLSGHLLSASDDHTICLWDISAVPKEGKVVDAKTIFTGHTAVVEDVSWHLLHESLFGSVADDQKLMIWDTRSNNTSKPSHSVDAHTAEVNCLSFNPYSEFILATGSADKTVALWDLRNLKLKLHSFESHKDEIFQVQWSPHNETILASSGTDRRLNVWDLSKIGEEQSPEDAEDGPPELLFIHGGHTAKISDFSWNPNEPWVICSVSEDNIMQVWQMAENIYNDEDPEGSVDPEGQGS
Assay: Hot Spot HMT assay, inhibition of PRC2 enzymatic activity
Type: biochemical
Settings: 10 nM PRC2 complex, 0.05 mg/ml core histone H3, 1 μM 3H-SAM, 1 hr at 30° C.; read-out: IC50, Inhibition of PRC2-mediated Enzymatic Activity
Procedure: Ten-point dose-response curves for compounds of the present invention were determined using a Hot Spot HMT assay (Reaction Biology Corp; see Horiuchi et al., Assay Drug Dev Technol. (2013) 4: 227-236 doi: 10.1089/adt.2012.480). […] In this assay, the transfer of the tritiated methyl group from radiolabeled S-adenosyl methionine (SAM) to purified core histone protein by EZH2 is quantitated after filtration to determine the activity of the core PRC2 complex in the presence and absence of compound. […]
IC50 for assorted compounds

SMILES_CODE: NS(=O)(=O)c1ccc(-c2cnc(NCc3c(F)ccc4c3CCO4)c3cnncc23)cc1
IC50: < 100 nM

SMILES_CODE: Cn1nncc1-c1cnc(NCc2c(F)ccc3c2CCO3)c2c[nH]c(=O)cc12
IC50: > 250 nM

SMILES_CODE: Cc1cc(S(C)(=O)=O)ccc1-c1cnc(NCc2c(F)ccc3c2CCO3)c2cnccc12
IC50: 100 to 250 nM

SMILES_CODE: Cn1nc(C#N)cc1-c1cnc(NCc2c(F)ccc3c2CCO3)c2cnncc12
IC50: < 100 nM

SMILES_CODE: CN(C)Cc1ccc(-c2cnc(NCc3c(F)ccc4c3CCO4)c3cncnc23)cc1
IC50: < 100 nM

SMILES_CODE: COc1cc2c(-c3cc(C)nn3C)cnc(NCc3c(F)ccc4c3CCO4)c2cn1
IC50: 100 to 250 nM

SMILES_CODE: Cc1ncccc1-c1cnc(NCc2c(F)ccc3c2CCO3)c2cnncc12
IC50: < 100 nM

SMILES_CODE: COc1ncc2c(NCc3c(F)ccc4c3CCO4)ncc(-c3cc(C)nn3C)c2n1
IC50: < 100 nM

SMILES_CODE: Cc1cc(CN(C)C)ccc1-c1cnc(NCc2c(F)ccc3c2CCO3)c2c[nH]c(=O)cc12
IC50: 100 to 250 nM

SMILES_CODE: Cc1cc(S(C)(=O)=O)ccc1-c1cnc(NCc2c(F)ccc3c2CCO3)c2c[nH]c(=O)cc12
IC50: 100 to 250 nM

SMILES_CODE: COc1ccc2c(NCc3c(F)ccc4c3CCO4)ncc(-c3cc(C)nn3C)c2n1
IC50: > 250 nM

SMILES_CODE: CNCc1ccc(-c2cnc(NCc3c(F)ccc4c3CCO4)c3cnncc23)cc1
IC50: 100 to 250 nM

SMILES_CODE: Cc1cc(-c2cnc(NCc3c(F)ccc4c3CCO4)c3ccncc23)n(C)n1
IC50: > 250 nM

SMILES_CODE: Cc1cc(-c2cnc(NCc3c(F)ccc4c3CCO4)c3nc[nH]c(=O)c23)n(C)n1
IC50: > 250 nM

SMILES_CODE: CNS(=O)(=O)c1ccc(-c2cnc(NCc3c(F)ccc4c3CCO4)c3cnncc23)cc1
IC50: < 100 nM

SMILES_CODE: Fc1ccc2c(c1CNc1ncc(-c3ccc(CN4CCCC4)cc3)c3cnncc13)CCO2
IC50: < 100 nM

SMILES_CODE: CN(C)S(=O)(=O)c1ccc(-c2cnc(NCc3c(F)ccc4c3CCO4)c3cnncc23)cc1
IC50: < 100 nM
